Just for reference, ChEMBL document CHEMBL1687734 is where these values come from.

Assay: Drug concentration in Alveolar macrophage of healthy human at 500 mg, po administered as single dose after 24 hrs
Assay type: ADME, organism-based
Conditions: alveolar macrophages, read-out: Drug uptake
endpoint: concentration at 24 h

What does the data say about its concentration at 24 h? Entry: CC[C@H]1OC(=O)[C@H](C)[C@@H](O[C@H]2C[C@@](C)(OC)[C@@H](O)[C@H](C)O2)[C@H](C)[C@@H](O[C@@H]2O[C@H](C)C[C@H](N(C)C)[C@H]2O)[C@](C)(O)C[C@@H](C)CN(C)[C@H](C)[C@@H](O)[C@]1(C)O [AZITHROMYCIN]
30.8 µg/mL
